EXPERIMENTAL SYSTEM: EHMT2 (Homo sapiens)
Construct: host or cells: MDA-MB-231
Sequence (Q96KQ7 whole entry): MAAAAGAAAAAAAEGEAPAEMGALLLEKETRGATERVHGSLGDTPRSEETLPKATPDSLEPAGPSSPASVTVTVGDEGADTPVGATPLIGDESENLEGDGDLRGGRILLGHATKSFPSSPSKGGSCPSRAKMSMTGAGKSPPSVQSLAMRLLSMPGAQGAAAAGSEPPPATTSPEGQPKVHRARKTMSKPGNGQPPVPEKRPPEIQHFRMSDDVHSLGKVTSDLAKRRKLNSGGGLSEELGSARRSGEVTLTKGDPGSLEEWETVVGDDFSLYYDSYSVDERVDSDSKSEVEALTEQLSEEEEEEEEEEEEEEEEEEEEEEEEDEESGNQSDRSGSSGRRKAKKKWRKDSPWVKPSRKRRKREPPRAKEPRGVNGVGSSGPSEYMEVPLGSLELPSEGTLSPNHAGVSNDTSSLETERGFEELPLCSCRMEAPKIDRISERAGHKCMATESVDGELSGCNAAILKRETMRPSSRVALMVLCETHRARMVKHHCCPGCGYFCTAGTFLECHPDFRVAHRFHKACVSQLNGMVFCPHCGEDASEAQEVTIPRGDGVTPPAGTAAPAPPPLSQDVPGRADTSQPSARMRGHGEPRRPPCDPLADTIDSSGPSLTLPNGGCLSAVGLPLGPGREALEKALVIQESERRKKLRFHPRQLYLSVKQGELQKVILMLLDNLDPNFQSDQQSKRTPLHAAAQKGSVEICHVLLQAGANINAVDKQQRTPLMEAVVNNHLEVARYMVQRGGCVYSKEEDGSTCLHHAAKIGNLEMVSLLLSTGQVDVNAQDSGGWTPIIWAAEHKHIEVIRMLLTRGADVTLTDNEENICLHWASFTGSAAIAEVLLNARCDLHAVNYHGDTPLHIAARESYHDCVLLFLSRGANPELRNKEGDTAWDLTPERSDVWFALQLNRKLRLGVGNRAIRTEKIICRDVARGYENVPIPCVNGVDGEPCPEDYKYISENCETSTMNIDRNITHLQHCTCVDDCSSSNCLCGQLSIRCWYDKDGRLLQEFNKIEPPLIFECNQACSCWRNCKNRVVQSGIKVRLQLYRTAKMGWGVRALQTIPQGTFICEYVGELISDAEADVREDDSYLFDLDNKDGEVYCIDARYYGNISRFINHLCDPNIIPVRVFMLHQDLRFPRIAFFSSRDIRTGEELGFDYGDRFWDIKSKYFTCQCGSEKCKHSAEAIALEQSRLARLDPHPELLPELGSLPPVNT
TEST DETAILS: MDA-MB-231 H3K9me2 in-cell Western assay (EHMT2 ICW)
Format: cell-based
TEST CONTEXT: Table II; MDA-MB-231 H3K9me2 in-cell Western; read-out: EHMT2 ICW (IC50 μM)
Procedure: RPMI/Glutamax medium, Penicillin-Streptomycin, Heat Inactivated Fetal Bovine Serum, and D-PBS were purchased from Life Technologies (Grand Island, N.Y., USA). […] Compound (100 nL) was added directly to 384-well cell plate. […] Plates were allowed to dry at room temperature then imaged on a Licor Odyssey Infrared Scanner (Licor Biosciences) which measured integrated intensity at 700 nm and 800 nm wavelengths. […] First, the ratio for each well was determined by: […]
READOUT TYPE: IC50

# input Give the measured IC50 of `COc1ccc(Nc2nccc(N3CCC(C(N)=O)CC3)n2)cc1OCCCN1CCCC1` .
# output > 10 µM

# input Quick one: IC50 for `CNc1ccnc(Nc2cccc(OC[C@H](O)CN3CCCC3)c2)n1` ?
# output 1 to 10 µM

# input Given the entry `COc1ccc(Nc2nccc(-c3c(C)n[nH]c3C)n2)cc1OCCCN1CCCC1` , report its measured IC50.
# output > 10 µM

# input # query: IC50 of entry `COc1ccc(Nc2nccc(NCc3nc4ccccc4[nH]3)n2)cc1OCCCN1CCCC1`
# output 0.1 to 1 µM

# input Fill in: IC50 of `COc1ccc(Nc2ccc3nn(C)cc3c2)cc1OCCCN1CCCC1` is ___
# output > 10 µM

# input Param item = `COc1ccc(Nc2nccc(-c3cnn(C)c3)n2)cc1OCCCN1CCCC1` ; retrieve measured IC50.
# output > 10 µM

# input Which IC50 value belongs to `COc1ccc(CNc2ccnc(Nc3ccc(OC)c(OCCCN4CCCC4)c3)n2)cc1` ?
# output 0.1 to 1 µM

# input Find the recorded IC50 belonging to `CNc1cccc(Nc2ccc(OC)c(OCCCN3CCCC3)c2)n1` and report it.
# output > 10 µM

# input Dear colleague, I am looking for the recorded IC50 of the following molecule: `COc1ccc(Nc2nccc(N(C)CCO)n2)cc1OCCCN1CCCC1`
# output > 10 µM
